From: the supplement of paper PMC10567573

Measured protein stability index, listed per entry.
B1: APBB1IP (parent)
chain: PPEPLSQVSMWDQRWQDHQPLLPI

# Variants of: B1
# PROTOCOL TEXT: protein stability index of a GFP-peptide fusion (GPS, HEK-293T) (PSI 1-6); higher = more stable;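 also: lentivirally expressed fusions sorted by FACS into six bins by GFP to DsRed ratio, PSI derived from sequencing read proportions per bin multiplied by bin number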
# RECORDED CONDITIONS: c terminus: a fixed tail appended
Give the value as a plain number.

Example entries begin here.
Q13P = 2.77
P4K = 2.55
E3V = 3.46
Q13D = 3.51
W11H = 3.83

Input: Query (variant): D12W ; field requested: protein stability index
Output: 1.85

Input: Form field: reported protein stability index of L5C
Output: 3.75

Input: Looking for the measured protein stability index of E3Y , can you help?
Output: 2.27

Input: Dear colleague, I am looking for the recorded protein stability index of the following variant: H18V
Output: 2.83
